# Test system: MDA-MB-435
# test-summary: NCI tumour cell line growth inhibition, 48 h
The source made the active and inactive calls. Cut-off read from the data, not from the text of the source: active = GI50 up to about 1.1 µM and inactive = higher.
Pick from active, inactive when you respond.

Can you look up the reported call for "C1=N\CCN2CCN(CC/N=C\c3ccccc3OCc3cccc(n3)COc3ccccc3/1)CC2" for me? active

Called result for "COc1cc2c(/C=C3/C(=O)Nc4ccccc43)c(Cl)n(Cc3ccc(Cl)cc3)c2cc1C" active

Please share the test call associated with "Cc1cc(-c2nc3cc(O)ccc3s2)ccc1N" . inactive

Assay result, entry "Cc1ncc([N+](=O)[O-])n1CCNC(=O)CCCCCn1ccnc1[N+](=O)[O-]" — outcome? inactive

# lookup: test call for "CCCC(CCN)(CCN)[N+](=O)[O-]" inactive

// return assay outcome for NC1CC(=O)c2c(I)sc(I)c21 (stereo unspecified) inactive

Test call for this compound, please: "CN(C)CCNc1nc2ccccc2c2c1C(=O)c1ccccc1-2" active

Fill in: this test's call for "CN1CCN(CC(=O)N2CCCn3c2nc2ccccc2c3=O)CC1" is ___ inactive

Hi, sorry to bother you, what did the test record for "O/N=C\c1cc(O)c(O)c(/C=N/O)c1" ? inactive

Call for entry "COc1cc2c(cc1O)NC(=O)[C@@H]1CCCN1C2=O" : inactive

Hey, what did the test say about "C(=N\Nc1ccc(-c2nc3ccccc3[nH]2)cc1)/c1c(-c2ccc(Cc3ccccc3)cc2)[nH]c2ccccc12" ? inactive

These entries and their values trace back to ChEMBL document CHEMBL1201862.
